# Tested on: MOLM14 cells
# assay: alamarBlue cytotoxicity assay, single drugs, 48 h
# Type: cell-based
# condition summary: Homo sapiens, MOLM-14, MOLM14, 48 h, means of at least three experiments
# Protocol: Cytotoxicity was assessed using alamarBlue assays (Life Technologies, Grand Island, N.Y.; used for IC50 determinations and all drug combinations except the drug combination screen (method described separately below)) or Trypan Blue dye exclusion (Life Technologies, Grand Island, N.Y.; used for experiments using inhibitors that could interfere with alamarBlue assay performance (NAC, Tiron, DFO)). […]
pIC50: −log10 of the molar value.
# pIC50 annotations

{"molecule": "COc1cc([C@@H]2c3cc4c(cc3[C@@H](O[C@@H]3O[C@@H]5CO[C@@H](C)O[C@H]5[C@H](O)[C@H]3O)[C@H]3COC(=O)[C@H]23)OCO4)cc(OC)c1O [ETO, etoposide]", "pIC50": 6.62}
{"molecule": "Nc1ccn([C@@H]2O[C@H](CO)[C@@H](O)[C@@H]2O)c(=O)n1", "pIC50": 6.54}
